# measurement_protocol: physchem
# details: buffer, pH 7
experimental_endpoint: solubility at 24 h (µg/mL)
Give your result in µg/mL as a bare value.

query_smiles: Cc1c(N2CC[C@@H](C3(N)CC3)C2)c(F)cc2cc(C(=O)O)c(=O)n(C3CC3)c12
readout_unit: µg/mL
solubility at 24 h: 623
//
query_smiles: C[C@H]1COc2c(N3CC[C@@H](C4(N)CC4)C3)c(F)cc3cc(C(=O)O)c(=O)n1c23
readout_unit: µg/mL
solubility at 24 h: 1270

Let's switch to this molecule now.
Q) Respond only with solubility at 24 h recorded for C[C@H](N)[C@@H]1CCN(c2c(F)cc3cc(C(=O)O)c(=O)n4c3c2OC[C@@H]4C)C1
A) 675
